HEKBlue TGFβ blocking IC50 values, listed per item
Target: T1, human TGFβ2, mature receptor-binding domain (human, UniProt P09858 303-414 (pig entry), The mature TGFβ2 is a disulfide-linked homodimer of this 112-residue chain. The 4A11 epitope spans both monomers (p-1207).)
T1 sequence: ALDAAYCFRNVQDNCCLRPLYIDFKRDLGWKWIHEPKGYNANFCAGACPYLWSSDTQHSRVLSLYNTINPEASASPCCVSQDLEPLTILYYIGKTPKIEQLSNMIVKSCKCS
Test: cell-based or functional assay

Answered cases to consult:
# input Entry h2A10.v2.8 (antibody, human IgG1, kappa, N297G, V domains shown) VH: EVQLLESGGGLVQPGGSLRLSCAASGFDFNSYGMSWVRQAPGKGLELVADIVSKTYNYTTYYSDSVKDRFTISRDDSKNTVYLQMNSLRAEDTAVYYCTVAPGGSFDYWGQGTLVTVSS VL: DIQLTQSPSSLSASVGDRVTITCRASQSVSISRFNLMHWYQHKPGKQPKLLIYRASNLASGIPSRFSGSGSGTDFTLTISSLQPEDFATYYCQHSRESPWTFGGGTKVEIKR has what HEKBlue TGFβ blocking IC50?
# output > 200 nM

# input Try the binder h2A10.v2.4 (antibody, human IgG1, kappa, N297G, V domains shown) VH: EVQLLESGGGLVQPGGSLRLSCAASGFDFNSYGMSWVRQAPGKGLELVADIVSKTYNYTTYYSDSVKDRFTISRDDSKSTVYLQMNSLRAEDTAVYYCTVAPGGSFDYWGQGTLVTVSS VL: DIQLTQSPSSLSASVGDRVTITCRASQSVSISRFNLMHWYQHKPGKQPKLLIYRASNLASGVPSRFSGSGSGTDFTLTISSLQPEDFATYYCQHSRESPWTFGGGTKVEIKR
# output > 200 nM

***
# input Entry h2A10.v2.3 (antibody, human IgG1, kappa, N297G, V domains shown) VH: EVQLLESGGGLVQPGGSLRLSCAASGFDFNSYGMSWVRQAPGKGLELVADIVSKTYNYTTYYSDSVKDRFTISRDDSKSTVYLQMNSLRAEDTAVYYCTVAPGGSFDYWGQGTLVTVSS VL: DIQLTQSPSSLSASVGDRVTITCRASQSVSISRFNLMHWYQHKPGKAPKLLIYRASNLASGIPSRFSGSGSGTDFTLTISSLQPEDFATYYCQHSRESPWTFGGGTKVEIKR has what HEKBlue TGFβ blocking IC50?
# output > 200 nM

Just for reference, patent US20210301005A1 is where these values come from.
